B1: HDV Ribozyme (parent)
chain: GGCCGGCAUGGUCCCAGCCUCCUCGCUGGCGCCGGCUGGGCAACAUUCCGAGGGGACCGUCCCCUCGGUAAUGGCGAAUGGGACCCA

# Variants of: B1
# run_description: self-cleavage, relative activity (ratio to wild type); higher = more cleavage; co-transcriptional
Exercise: state measured self-cleavage for each of the variants provided.
Simply state the number, no unit and no words.

q: What value of self-cleavage has been reported for the following variant? GGCCGGCAUGGUCCCAGCCUCCUCGCUGGGGCCGGCCGGGCAACAUUCCGAGGGGACCGUCCCCUCGGUAAUGGCGAAUGGGACCCA [C30G U37C]
a: 0

q: What about UGCCGGCAUGGUCCCAGCCUCCUCGCUGGCGGCGGCUGGGCAACAUUCCGAGGGGACCGUCCCCUCGGUAAUGGCGAAUGGGACCCA [G1U C32G] ?
a: 0.305

q: What about GGCCGGCAUGGUCCCAGCCUCCUCGCUGGCGCAGGCUGGGCAACAUUCCGAGGGGACCGUCCCCUCGGUAAUGGUGAAUGGGACCCA [C33A C75U] ?
a: 0.0563

q: What about GGCCGGCAUGGUCCCCGCCUCCUCGCUGGCGCCGGCUGGGCACCAUUCCGAGGGGACCGUCCCCUCGGUAAUGGCGAAUGGGACCCA [A16C A43C] ?
a: 0.415

q: What about GGCCGGCAUGGUCCCAGCCUCCUCGCUGGCGCCGGCUGGGCAACAUUCCGAGGGGACCGUCCCCUCGGUAAUAGCGAAUGCGACCCA [G73A G81C] ?
a: 0.425

q: What about GGCCGGCAUGGUCCCAGCCUCCUCGCUGGCGCCGGCUGGGCAAGAUUCCAAGGGGACCGUCCCCUCGGUAAUGGCGAAUGGGACCCA [C44G G50A] ?
a: 0.657

q: What about GGCCGGCAUGGUCCCAGCCUCCUCGCUGGCGCCGCCUGGGCAACAUUACGAGGGGACCGUCCCCUCGGUAAUGGCGAAUGGGACCCA [G35C C48A] ?
a: 0.269

q: What about GGCCGGCAUGGUCCCAGCCUCCUCGCUGUCGCCGGCUGGGCAACAUGCCGAGGGGACCGUCCCCUCGGUAAUGGCGAAUGGGACCCA [G29U U47G] ?
a: 0

q: What about GGCCGGCAUGGUACCAGCCUCCUCGCUGGCGCCGGCUGGGCAACAUUCCGAGGGGACCGUCCCCUCGGUAAUGGCGAAUGGUACCCA [C13A G82U] ?
a: 0.904

q: What about GGCCGGCAUGUUCCCAGCCUCCUCGCUGGCGCCGGCUGGGCUACAUUCCGAGGGGACCGUCCCCUCGGUAAUGGCGAAUGGGACCCA [G11U A42U] ?
a: 0.0852

q: What about GGCCGGCAUGGUCCCAGCCUCCUCGCUGGCGCCGGCUGGGCAACAUACCGAGGGGACCGUCCCCUCGGAAAUGGCGAAUGGGACCCA [U47A U69A] ?
a: 1.02

q: What about GGCCGGCAUGGUCCCAGCCUCCUCGCUGGCGCCGGCUGGGCAACAUUCCGAGGGGACCGUCCCCUUGGUAACGGCGAAUGGGACCCA [C66U U72C] ?
a: 0.518

q: What about GGCCGGCAUGGUCCCAGCCUCCUCGCUCGCGCCGGCUGGGCAACAUUCCGAGGGGACCGUCCCCUCGAUAAUGGCGAAUGGGACCCA [G28C G68A] ?
a: 0.0475

q: What about GGCCGGCAUGGUCCCAGCCUCCUCGCUGGCGCCGGCUGGGCAACAUUCCGGGGGGACCGUCCCCUCGGUAAUGGCGAAUGGGCCCCA [A51G A83C] ?
a: 0.199

q: What about GGCCGGCAUGGUCCCAGCCUCCUCGCUGGCGUCGGCUGGGCAUCAUUCCGAGGGGACCGUCCCCUCGGUAAUGGCGAAUGGGACCCA [C32U A43U] ?
a: 0.491

q: What about GACCGGCAUGGUCCCAGCCUCCUCGCUGGCGCCGGCUGGGCAACAUCCCGAGGGGACCGUCCCCUCGGUAAUGGCGAAUGGGACCCA [G2A U47C] ?
a: 0.0292

q: What about GGCCGGCAUGGUCCCAGCCUCCUCGCUGGCGCCGGCUGGGUAACAUUCCGAGGGGACCGUCCCCUCGCUAAUGGCGAAUGGGACCCA [C41U G68C] ?
a: 0.636

q: What about GGCCGGCAUGGUCCCAGCCUCCUCGAUGGUGCCGGCUGGGCAACAUUCCGAGGGGACCGUCCCCUCGGUAAUGGCGAAUGGGACCCA [C26A C30U] ?
a: 0.68

q: What about CGCCGCCAUGGUCCCAGCCUCCUCGCUGGCGCCGGCUGGGCAACAUUCCGAGGGGACCGUCCCCUCGGUAAUGGCGAAUGGGACCCA [G1C G6C] ?
a: 0

q: What about GGCCGGCAUGGUCCCAGCCUCCUCGCAGGCGCCGGCUGGGCAACAUUCCGAGGGGACCGUCCCCUCUGUAAUGGCGAAUGGGACCCA [U27A G67U] ?
a: 0.799

q: What about GGCCGGCAUGGUCCCAGCCUCCUCGCUGGCGUCAGCUGGGCAACAUUCCGAGGGGACCGUCCCCUCGGUAAUGGCGAAUGGGACCCA [C32U G34A] ?
a: 0.0302

q: What about GGCCGGCAUGGUCCCAGCCUCCUCGCUGGCGCCGGCUGGGCAACAUUCCGAGGGGCCCGUCCCCUCGGUCAUGGCGAAUGGGACCCA [A56C A70C] ?
a: 1.12

q: What about GGCCGGCAUGGUCCUAGCCUCCUCGCUGGCGCCGGCUGGGCAACAUUCCGAGGGGACCGUCCCCUCGGUAAUGGAGAAUGGGACCCA [C15U C75A] ?
a: 0.0326

q: What about GGCCGGCAUGGUCCCAGCCUCCUCGCUGGCGCCGGCUGGGCAACAUUCCGAGGGCACCGUCCCCUCGGUAAUGGCGAAUGGAACCCA [G55C G82A] ?
a: 0.447

q: What about GGCCGGCAUGGUCCCAGCCUCCUCGCUGGCGCAGGCUGGGCAACAUUCCGAGGGCACCGUCCCCUCGGUAAUGGCGAAUGGGACCCA [C33A G55C] ?
a: 0.181

q: What about GGCCGGCAUGGUCCCAGCCUCCUCGCUGGCGCCGGCUGGCCAACAUUCCGAGGGGACCGUCCCCUCGGUAAUGGCGAUUGGGACCCA [G40C A78U] ?
a: 0.122

q: What about UGCCGGCAUGGUCCCAGCCUCCUCGCUGGCGCCGGCUGGGCAACAUUCCGAGGGGACCGUCCCCUCGGUAAUGGCGAAGGGGACCCA [G1U U79G] ?
a: 0.539

q: What about GGCCGGCACGGUCCCAGCCUCCUCGCUGGCGCCGGCUGGGCAACAUUCCGAGGGGACCGUCCCCUCGCUAAUGGCGAAUGGGACCCA [U9C G68C] ?
a: 0.89

q: What about GGCCGGCAUGGUCCCAGCCUCCUCGCUGGCGACGGCUGGGCAACAUUCCGAGGGGACCGUCCCCUCGGUACUGGCGAAUGGGACCCA [C32A A71C] ?
a: 0

q: What about GGCCGGCAUGGUCCCAGCCUCCUCGCUGACGCCGGCUGGGCAACAUUCCGAGAGGACCGUCCCCUCGGUAAUGGCGAAUGGGACCCA [G29A G53A] ?
a: 0.217

q: What about GGCCGGCAUGGUCCCAGCUUCCUCGCUGGCGCCGGCUGGGCAACAUUCCGAGGGGACCGUCCCCUCGGUAAUGGCGAAGGGGACCCA [C19U U79G] ?
a: 0.0997

q: What about GGCCGGCAUGGUCCCAGCCUCCUCGCUGGCGCCGGCUGGGCAACAUGCCGAGGGGACCGUCCCCCCGGUAAUGGCGAAUGGGACCCA [U47G U65C] ?
a: 0.923

q: What about GGCCGGCAUGGUCCCAGCCUCCUCGCUGGCGCCGGCUGGGCAACAUUCCGAGGGGACUGUCCCCUCGGUAAUGGCGAAUGGUACCCA [C58U G82U] ?
a: 0.34

q: What about GGCCGGCAUGGUCCCAGCCUCCUCGCUGGCGCCGGCUGGGCAACAUUCCGAGGGGACCGUCCCGUCGGUAAUGGCGAAUGCGACCCA [C64G G81C] ?
a: 0.208

q: What about GGCCGGCAUGGUCCCAGCCUCCUCGCUGGCGCCGGCUGGGCAACAUUCCGAGGGGACCGUCCCCUUGGUAAUGGCGAAUGGGACUCA [C66U C85U] ?
a: 0.888

q: What about GGCCGGCAUGGUCCCAGCCUCCUCGUUGGCGCCGGCUGGGCAACCUUCCGAGGGGACCGUCCCCUCGGUAAUGGCGAAUGGGACCCA [C26U A45C] ?
a: 0.776

q: What about GGCCGGGAUGGUCCCAGCCUCCUCGCUGGCGCCGGCUGGGCAACAUUCCGAGGGGACCGUCCCCUCGGUAAUGGGGAAUGGGACCCA [C7G C75G] ?
a: 0.145

q: What about GGCCGGCAUGGUCCCAGCCUCCUCGCUGGCGCUGGCUGGGCAACAUUCCGAGGAGACCGUCCCCUCGGUAAUGGCGAAUGGGACCCA [C33U G54A] ?
a: 1.05

q: What about GGCCGGCAUGGUCCCAGCCUCCUCGCUGGCGCCGGCUGGGCAACAUCCCGAGGGGACCGUCCCCACGGUAAUGGCGAAUGGGACCCA [U47C U65A] ?
a: 0.923

q: What about GCCCGGCAUGGUCCCAGCCUCCUCGCUGGCGCCGGCUGGGCAGCAUUCCGAGGGGACCGUCCCCUCGGUAAUGGCGAAUGGGACCCA [G2C A43G] ?
a: 0

q: What about GGCCGGCAUGGUUCCAGCCUCCUCGCUGGCGCCGGCUGGGCAACAUUCCGAGGGGACCGUCCCCUCGUUAAUGGCGAAUGGGACCCA [C13U G68U] ?
a: 0.614

q: What about GGCCGGCAUAGUCCCAGCCUCCUCGCUGGCGCCCGCUGGGCAACAUUCCGAGGGGACCGUCCCCUCGGUAAUGGCGAAUGGGACCCA [G10A G34C] ?
a: 0.227

q: What about GGCCGGCAUGGUCUCAGCCUCCUCGCUGGCGCCGGCUGGGCAACAUUCCGAGGGGACCGUCCCCUCGGUAAUGGCGAAUGGGACCCC [C14U A87C] ?
a: 1.12

q: What about GGCCGGCAUGGUCCCAGCCUCCUCGCUGGCGCCGGCUGGGCAACAUGCCGAGGGGACCGUCCCCUCGGUAAUGGCGAAUGGGACCCU [U47G A87U] ?
a: 0.974

q: What about GGCCGGCAUGGUCCCAGCCUCCUCGCUGCCGCCGGCUGGGCAACAUUCCGAGGGGACCGUCACCUCGGUAAUGGCGAAUGGGACCCA [G29C C62A] ?
a: 0

q: What about GGCCGGCAGGGUCCCAGCCUCCUCGCUGGCGCCGGCUGGGCAACAUUCCGAGGGGACCGUCCCCGCGGUAAUGGCGAAUGGGACCCA [U9G U65G] ?
a: 0.782
